assay: in vitro; conditions: human, hek293t cells
Assay Endpoint: viability at 48 h, 25 µM (%)
Express it in %; write the number only.

Challenge: Consider the compound O=C(CCl)NC(c1ccccc1)C1CCCC1 (centres unmarked) [6-O18] and give its measured viability at 48 h, 25 µM.
Response given: 8.29

Challenge: So what's the measured viability at 48 h, 25 µM for this one? CC(Cl)C(=O)NCC(=O)Nc1ccc(F)c(F)c1F (centres unmarked) [4-D20]
Response given: 118

Challenge: Which viability at 48 h, 25 µM is listed for CN(C1CCCCC1)S(=O)(=O)c1ccccc1NC(=O)CCl [5-N10] ?
Response given: 0.725

Challenge: # query: viability at 48 h, 25 µM of entry C=CC(=O)NCCc1ccc(S(N)(=O)=O)cc1 [2-B13]
Response given: 77.8

Challenge: Could you tell me which viability at 48 h, 25 µM is on file for CC(Cl)C(=O)N1CCCN2c3ccccc3CC2C1 (centres unmarked) [7-G06] ?
Response given: 96.3

Challenge: What value of viability at 48 h, 25 µM has been reported for the following compound? Cc1ccc(NC(=O)NC(=O)C(C)Cl)c(C)c1 (centres unmarked) [6-J04]
Response given: 96.6

Challenge: Value lookup for viability at 48 h, 25 µM; key = CC(NC(=O)C(C#N)=Cc1cccc(F)c1)c1ccccc1 (centres unmarked) [8-L18]
Response given: 34.6

Challenge: Param item = C=CC(=O)N1CCOCC2(CC2)C1 [2-M15] ; retrieve measured viability at 48 h, 25 µM.
Response given: 180

Challenge: Look up viability at 48 h, 25 µM: CC(Cl)C(=O)N1CCCc2c1ccnc2N(C)C (centres unmarked) [6-D14]
Response given: 109

Challenge: Param item = C=CC(=O)NC(c1ccccc1)c1nc(C)no1 (centres unmarked) [1-B13] ; retrieve measured viability at 48 h, 25 µM.
Response given: 109

Challenge: I have this compound here, C=CC(=O)NCc1ccnc(N2CCSCC2)c1 [1-I14] , and I need its recorded viability at 48 h, 25 µM.
Response given: 22.1

Challenge: Give the measured viability at 48 h, 25 µM of C=CC(=O)NCC(O)c1ncccc1OC (centres unmarked) [2-J11] .
Response given: 80.8

Challenge: Dear colleague, I am looking for the recorded viability at 48 h, 25 µM of the following compound: C=CC(=O)N1CCC(C(=O)N2CCN(c3ccnc(C)n3)CC2)CC1 [2-L06]
Response given: 88.5

Challenge: Quick one: viability at 48 h, 25 µM for C=CC(=O)N1CCN(S(=O)(=O)c2ccc(C(C)(C)C)cc2)CC1 [3-A19] ?
Response given: 24.5

Challenge: Suppose we examine the compound C=CC(=O)NC1CCC(OCc2cc(C)no2)CC1 (centres unmarked) [1-M08] ; what viability at 48 h, 25 µM value has been reported?
Response given: 86.5

Challenge: What does the record list as viability at 48 h, 25 µM for CC(C)N(c1ccccc1)c1ccc(NC(=O)CCl)cc1 [6-I17] ?
Response given: 0.67

Challenge: Requested field: viability at 48 h, 25 µM. Item: N#CC(=Cc1ccc2ccccc2c1)C(=O)NCc1ccccc1 [9-N11]
Response given: 123

Challenge: For C=CC(=O)N(C)CC(=O)N1CCN(C(=O)c2cccc(O)c2)CC1 [2-J22] , what is its reported viability at 48 h, 25 µM?
Response given: 97.7

Challenge: So what's the measured viability at 48 h, 25 µM for this one? CCc1nocc1CN(C)C(=O)C(C)Cl (centres unmarked) [7-M06]
Response given: 95.1

Challenge: I have this compound here, Cc1ccsc1C=C(C#N)C(=O)NC1CCCCC1C (centres unmarked) [8-G07] , and I need its recorded viability at 48 h, 25 µM.
Response given: 61.1

Challenge: Quick one: viability at 48 h, 25 µM for CC(Cl)C(=O)N1Cc2ccoc2CC(C)(C)C1 (centres unmarked) [5-P21] ?
Response given: 132

Challenge: What does the record list as viability at 48 h, 25 µM for Cc1ccc(C2OCCCC2CNC(=O)C(C)Cl)cc1 (centres unmarked) [7-B09] ?
Response given: 91.9

Challenge: // lookup viability at 48 h, 25 µM for COc1ccc(C(C)(C)C)cc1NC(=O)CCl [4-C07]
Response given: 0.79
